biological target: Small ubiquitin-related modifier 1 (Homo sapiens); test: inhibitors of SUMO1 peptide binding, dose response, biochemical, fluorescence polarization, uHTS hits (AID 624382); type: functional; settings: read-out: IC50_Mean
Sequence (P63165 whole entry): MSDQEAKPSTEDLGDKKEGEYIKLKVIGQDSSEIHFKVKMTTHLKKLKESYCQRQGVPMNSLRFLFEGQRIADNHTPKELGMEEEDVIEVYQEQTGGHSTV
Active and inactive are the calls of the source.
Outcome codes: active, inactive

# Molecule, Cat
rows = [
    ("[O-][S+](c1cc(Cl)cc(Cl)c1O)c1cc(Cl)cc(Cl)c1O [BITHIONOLOXIDE]", "active"),
    ("CCC(C)[C@@H](CN)NCC1(c2ccccc2)CC1 (stereo not given in full)", "inactive"),
    ("COc1ccc(-c2cc3nc4ccccc4n3c(N)c2C#N)cc1", "inactive"),
    ("C/C(=N\\NC(=O)c1cc(O)cc(O)c1)c1ccc(NC(=O)Cc2ccccc2)cc1", "inactive"),
    ("O=C(O)c1cccc2c1NC(C(=O)O)C1CC(Sc3ccccc3[N+](=O)[O-])C(Cl)C21 (stereo not given)", "inactive"),
]

----------
target: Cytochrome P450 2C19 (Homo sapiens, UniProt P33261); test: Cytochrome panel assay with activity outcomes. Panel member name: p450-cyp2c19 Compounds with AC50 equal or less than 10 uM are considered active; type: functional; conditions: read-out: AC50
Sequence (P33261 whole entry): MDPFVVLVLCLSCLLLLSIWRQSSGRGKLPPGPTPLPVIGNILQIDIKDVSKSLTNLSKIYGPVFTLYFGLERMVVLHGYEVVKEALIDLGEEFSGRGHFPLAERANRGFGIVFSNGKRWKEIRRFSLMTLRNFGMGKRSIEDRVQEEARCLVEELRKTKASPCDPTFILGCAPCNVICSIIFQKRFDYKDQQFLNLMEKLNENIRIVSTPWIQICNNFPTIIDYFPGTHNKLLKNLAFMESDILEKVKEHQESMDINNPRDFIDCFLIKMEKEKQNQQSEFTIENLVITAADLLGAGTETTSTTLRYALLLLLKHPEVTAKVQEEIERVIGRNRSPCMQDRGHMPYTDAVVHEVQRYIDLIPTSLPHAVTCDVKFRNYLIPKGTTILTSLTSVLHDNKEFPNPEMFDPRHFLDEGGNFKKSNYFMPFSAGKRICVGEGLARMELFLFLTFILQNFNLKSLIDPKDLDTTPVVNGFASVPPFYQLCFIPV
Measured AC50, listed per entry.

# Structure string, AC50
records = [
    ("N#Cc1cccc(NC(=O)N2CC[C@@]3(CCCN(S(=O)(=O)c4ccccc4)C3)C2)c1", "39.8 µM (inconclusive)"),
    ("CCc1cc2c(=O)c(-c3nc4ccccc4n3C)c(C)oc2c(CN(CC)CC)c1O", "3.55 µM (inconclusive)"),
    ("O=C(Nc1nc[nH]n1)c1ccc([N+](=O)[O-])cc1[N+](=O)[O-]", "39.8 µM (inconclusive)"),
    ("C/C(CC(=O)NCCCN1CCOCC1)=N\\NC(=O)COc1ccc(Cl)cc1", "10 µM (inconclusive)"),
    ("Cc1ccccc1C(=O)c1c[nH]c(C(=O)NCc2cccs2)c1", "25.1 µM (inconclusive)"),
]

----------
As shown below, each of these compounds has a reported IC50 value.
biological target: Large T antigen (Simian virus 40, UniProt P03070); type: functional, Betapolyomavirus macacae;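 also: Confirmatory-stage PubChem screen for compounds that inhibit SV40 T antigen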
Sequence (P03070 whole entry): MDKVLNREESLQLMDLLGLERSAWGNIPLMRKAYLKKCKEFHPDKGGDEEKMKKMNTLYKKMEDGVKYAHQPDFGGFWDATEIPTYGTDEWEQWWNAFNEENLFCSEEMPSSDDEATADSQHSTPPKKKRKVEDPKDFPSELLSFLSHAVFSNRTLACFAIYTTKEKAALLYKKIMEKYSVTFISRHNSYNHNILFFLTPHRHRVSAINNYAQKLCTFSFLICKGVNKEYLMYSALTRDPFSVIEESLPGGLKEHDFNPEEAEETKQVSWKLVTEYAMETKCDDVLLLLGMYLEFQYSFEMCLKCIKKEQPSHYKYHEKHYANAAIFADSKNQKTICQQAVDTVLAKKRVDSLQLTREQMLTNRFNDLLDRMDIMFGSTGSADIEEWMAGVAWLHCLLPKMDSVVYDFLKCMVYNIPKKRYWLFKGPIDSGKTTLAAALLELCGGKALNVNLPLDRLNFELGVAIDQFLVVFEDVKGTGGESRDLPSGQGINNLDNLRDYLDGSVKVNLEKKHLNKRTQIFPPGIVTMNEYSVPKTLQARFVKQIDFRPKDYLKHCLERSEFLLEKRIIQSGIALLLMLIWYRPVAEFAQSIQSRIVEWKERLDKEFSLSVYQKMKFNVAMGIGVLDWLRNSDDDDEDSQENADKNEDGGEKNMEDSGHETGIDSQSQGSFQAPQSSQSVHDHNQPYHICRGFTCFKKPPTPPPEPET
Calls of active or inactive are those of the source.

# Compound, IC50
measured = [
    ("CN1/C(=C\\C=N\\NC(=O)c2ccc(O)cc2)C(C)(C)c2ccccc21", "20.5 µM (active)"),
    ("Cc1ccc(S(=O)(=O)N2[C@@H](c3ccc(Cl)cc3)C(C(=O)O)=CC[C@H]2c2ccc(Cl)cc2)cc1", "> 100 µM (active)"),
    ("O=C1NC(=O)N(c2ccccc2)C(=O)/C1=C/c1ccc([N+](=O)[O-])s1", "59.3 µM (active)"),
    ("CN(C)/C=C/C=C/C=C/C1=[N+](C)c2ccccc2C1(C)C", "27.8 µM (active)"),
    ("Cc1ccccc1Nc1c(-c2ccccn2)nc2ccccn12", "< 0.39 µM (active)"),
    ("Oc1cnn(-c2ccccc2)c1", "4.71 µM (active)"),
    ("CC(C)c1ccc(C2CC(=O)N3CN(C)CSC3=C2C#N)cc1 (stereo not given)", "54.9 µM (active)"),
    ("C[N+]1(CCCCSc2ccc(O)cc2)CCCCC1", "12.1 µM (active)"),
    ("CC(/C=N/n1c(S)nnc1-c1cccnc1)=C\\c1ccccc1", "58.1 µM (active)"),
    ("C/C(=N\\NC(=O)Cn1cc([N+](=O)[O-])cn1)c1ccc(O)cc1", "54.5 µM (active)"),
]

----------
target: Heat shock protein HSP 90-alpha (Homo sapiens, UniProt P07900); assay type: functional, organism-based
Active and inactive are the calls of the source.
List of AC50 values.
Endpoint name: AC50

# Compound, Result
measured = [
    ("CCc1ccc(S(=O)(=O)N(C(=O)c2ccncc2)c2ccc(OC(=O)c3ccncc3)cc2)cc1", "1.03 µM (active)"),
    ("CC(C)(C)C(=O)NCC12C=CC(O1)C1C(=O)N(c3ccccc3)C(=O)C12 (stereo not given)", "8.25 µM (active)"),
    ("Cc1ccc(C(=O)ONC(=O)c2ccc(Cl)cc2)cc1[N+](=O)[O-]", "4.03 µM (active)"),
    ("CN(C)/C=C/C(=O)/C=C/c1cn(-c2ncc(C(F)(F)F)cc2Cl)c2ccccc12", "2.9 µM (active)"),
    ("O=C(Nc1nc(-c2ccccn2)cs1)c1ccc(Br)s1", "1.83 µM (active)"),
    ("O=[N+]([O-])c1ccc(/C=N/c2ccc(Cl)cc2Cl)s1", "7.83 µM (active)"),
    ("[O-][n+]1cccc2c(Br)cc(Br)c(O)c21", "3.15 µM (active)"),
    ("CCCCC(=O)NC(c1cccc([N+](=O)[O-])c1)c1ccc2cccnc2c1O (stereo not given)", "2.69 µM (active)"),
    ("CC1=CC2OC3CC4OC(=O)C=CC=CC(=O)OCCC(C)C(O)C(=O)OCC2(CC1)C4(C)C31CO1 (stereo not given)", "< 0.195 µM (active)"),
    ("CCCCCCC(=O)N(O)C1CC(=O)N(c2ccc(C)cc2)C1=O (stereo not given)", "1.43 µM (active)"),
]

----------
experiment: inhibitors of firefly luciferase expression or activity, dose response, H4 neuroglioma cells, luminescence (AID 1990); format: functional, cell-based
Active and inactive are the calls of the source.

# Structure string, EC50
records = [
    ("COc1cc(-c2noc(C)c2C#Cc2ccccn2)cc(OC)c1OC", "9.32 µM (active)"),
    ("Cn1cc(C(=O)c2ccc(Cl)cc2Cl)cc1C(=O)NN=C(N)COc1ccc(Cl)cc1Cl", "> 120 µM (not active)"),
    ("O=C(NCCc1ccccc1F)c1ccc2c(c1)OCCO2", "0.16 µM (active)"),
    ("COc1ccc2c(c1)CCc1cc(C(=O)N3CCN(c4ccc(N5CCOCC5)nn4)CC3)sc1-2", "13.6 µM (active)"),
    ("Cc1ccccc1Nc1c(-c2ccccn2)nc2ccccn12", "11 µM (active)"),
]

----------
biological target: UniProt P61088; assay type: functional
Sequence (P61088 whole entry): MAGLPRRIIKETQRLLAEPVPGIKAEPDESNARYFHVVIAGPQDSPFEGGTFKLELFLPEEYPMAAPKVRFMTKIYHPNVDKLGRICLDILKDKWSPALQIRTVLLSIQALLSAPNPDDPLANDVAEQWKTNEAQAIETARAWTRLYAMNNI
Calls of active or inactive are those of the source.
Outcome codes: 1 (yes) for active, 0 (no) for inactive

# Structure string, Cat
records = [
    ("CCOC(=O)c1c(NC(=O)COc2ccccc2C#N)sc2c1CC(C)(C)NC2(C)C", "1 (yes)"),
    ("COc1ccc2nc3oc(C(=O)NC4CCN(Cc5ccccc5)CC4)cc3cc2c1", "0 (no)"),
    ("NCCc1ccc(OCc2ccccc2)c(OCc2ccccc2)c1", "0 (no)"),
    ("CCCc1nnc(NC(=O)c2nc(S(=O)(=O)Cc3ccc(C)cc3)ncc2Cl)s1", "1 (yes)"),
    ("c1ccc(C2(CN3CCNC[C@H]3Cc3cccc4ccccc34)CC2)cc1", "0 (no)"),
    ("CN(CCNC(=O)C1CCN(c2ncnc3c2nc2n3CCCCC2)CC1)Cc1ccccc1", "1 (yes)"),
    ("CC(C)N=C(S)N=Nc1c(O)[nH]c2ccc(C(C)C)cc12", "1 (yes)"),
    ("CCCOc1ccc(C(=O)Nn2c(C)nc3ccccc3c2=O)cc1", "1 (yes)"),
    ("Cc1cccc(NC(=S)N=Nc2c(O)[nH]c3ccccc23)c1", "1 (yes)"),
    ("COc1ccccc1NC(=O)CSc1nnc(-c2ccoc2C)n1CCc1ccccc1", "1 (yes)"),
]

----------
Entries annotated with measured EC50
system: H4; assay: Luminescence Cell-Based Dose Response HTS to Identify Activators of 5'UTR Stem-Loop Driven Prion Protein mRNA Translation in H4 Neuroglioblastoma Cells. [Related pubchem assays: 1829 (Project Summary), 1814 (Primary HTS)]; format: functional; conditions: Homo sapiens
Activity calls are given as the source filed them.

# Structure string, Measurement target, EC50
records = [
    ("O=C(Nc1cnc2sccn2c1=O)c1ccccc1Cl", "H4", "> 120 µM (not active)"),
    ("C(=C\\n1nnc2ccccc21)/c1ccc[nH]1", "H4", "32 µM (active)"),
    ("COc1ccc(-c2cc(=Nc3ccccc3)c3cc(C)ccc3o2)cc1.[O-][Cl+3]([O-])([O-])O", "H4", "9.82 µM (active)"),
    ("Sc1nnc(-c2cc[nH]n2)n1-c1ccccc1Cl", "H4", "19.3 µM (active)"),
]

----------
molecular target: Glucose-6-phosphate 1-dehydrogenase (Homo sapiens); assay: human G6PD enzyme inhibitors, dose response, selectivity assay for P. falciparum G6PD inhibitor project, biochemical, fluorescence (AID 504792); format: functional
Sequence (P11413 whole entry): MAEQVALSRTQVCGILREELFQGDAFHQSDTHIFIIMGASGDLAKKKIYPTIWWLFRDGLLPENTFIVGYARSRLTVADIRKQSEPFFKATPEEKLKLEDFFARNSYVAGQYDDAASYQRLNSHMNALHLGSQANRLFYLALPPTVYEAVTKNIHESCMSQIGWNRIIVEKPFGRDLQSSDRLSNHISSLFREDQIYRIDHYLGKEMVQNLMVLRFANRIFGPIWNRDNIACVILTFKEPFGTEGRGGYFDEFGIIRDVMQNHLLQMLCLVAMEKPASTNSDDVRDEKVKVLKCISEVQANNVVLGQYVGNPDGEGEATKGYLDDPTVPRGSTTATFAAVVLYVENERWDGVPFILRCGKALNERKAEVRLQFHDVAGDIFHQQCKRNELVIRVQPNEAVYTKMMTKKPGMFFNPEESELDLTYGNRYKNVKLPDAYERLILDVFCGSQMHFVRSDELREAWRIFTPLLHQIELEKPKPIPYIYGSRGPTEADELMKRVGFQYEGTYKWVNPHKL
Active and inactive are the calls of the source.

# Structure string, Measurement target, IC50
measured = [
    ("C/C(Cn1nnc([N+](=O)[O-])n1)=N\\NC(=O)c1ccccc1O", "Glucose-6-phosphate 1-dehydrogenase (Homo sapiens)", "> 80 µM (inactive)"),
    ("COC(=O)[C@H](CCSC)NC(=O)c1cc2c3ccccc3nc-2c[nH]1", "Glucose-6-phosphate 1-dehydrogenase (Homo sapiens)", "> 80 µM (inactive)"),
    ("COc1cc(NCc2ccccc2)c2ncn(C(C)C)c2c1", "Glucose-6-phosphate 1-dehydrogenase (Homo sapiens)", "> 80 µM (inactive)"),
    ("O=C1NC(=O)N(c2ccccc2)C(=O)/C1=C/c1ccc([N+](=O)[O-])s1", "Glucose-6-phosphate 1-dehydrogenase (Homo sapiens)", "76.7 µM (inactive)"),
    ("O=C(Sc1nnc(O)nc1O)c1ccccc1", "Glucose-6-phosphate 1-dehydrogenase (Homo sapiens)", "> 80 µM (inactive)"),
]
